assay: in vitro; details: human, plasma, PPB
I'd appreciate it if you could supply fraction unbound at 5 h values for the items below.
A bare number is all that is needed in reply.

Incoming: Provide only the value of recorded fraction unbound at 5 h for Cc1nccc(-c2ccc(-c3nc4ccncc4c(O)c3C#N)cc2)c1Cl
Outgoing: 0.0014

Incoming: Provide only the value of recorded fraction unbound at 5 h for CC(=O)Nc1ccc2ccn(-c3cc(NCCCN(C)C)n4ncc(C#N)c4n3)c2c1
Outgoing: 0.101

Incoming: Provide only the value of recorded fraction unbound at 5 h for CN[C@@H](C)C(=O)N[C@H]1CN(C(=O)CC(C)C)CC[C@H]2CC[C@@H](C(=O)NC(c3ccccc3)c3ccccc3)N2C1=O [XEVINAPANT]
Outgoing: 0.253

Incoming: Provide only the value of recorded fraction unbound at 5 h for CC(C)(N)C(=O)N[C@H](COCc1ccccc1)C(=O)N1CCC2(CC1)CN(S(C)(=O)=O)c1ccccc12 [IBUTAMOREN]
Outgoing: 0.232

Incoming: Provide only the value of recorded fraction unbound at 5 h for CCCn1c(=O)[nH]c(=O)c2[nH]cnc21 [ENPROFYLLINE]
Outgoing: 0.329

Incoming: Provide only the value of recorded fraction unbound at 5 h for Cc1csc(NC(=O)COc2ncnc3c2cnn3-c2ccccc2Cl)n1
Outgoing: 0.0082

Incoming: Provide only the value of recorded fraction unbound at 5 h for CS(=O)(=O)Nc1ccc2[nH]c(Cc3ccc(Oc4ccccc4)cc3)nc2c1
Outgoing: 0.0055

Incoming: Provide only the value of recorded fraction unbound at 5 h for CCn1nc(C)c(C(=O)N[C@@H](C)C(C)(C)C)c1NS(=O)(=O)c1ccc(C)cc1
Outgoing: 0.0163

Incoming: Provide only the value of recorded fraction unbound at 5 h for COc1ccc(-c2cc(O)nc(N)n2)cc1C#N
Outgoing: 0.126

----------
I'd appreciate it if you could supply fraction unbound at 5 h values for the items below.
assay: in vitro; details: mouse, plasma
A bare number is all that is needed in reply.

Incoming: Provide only the value of recorded fraction unbound at 5 h for C[C@@H]1CN(C(=O)[C@@H]2CN(C(C)(C)C)C[C@H]2c2ccc(F)cc2F)C[C@H](C)[C@@]1(O)c1ccccc1
Outgoing: 0.262

Incoming: Provide only the value of recorded fraction unbound at 5 h for COc1ccc(S(=O)(=O)N2CC(C)N(S(=O)(=O)c3ccc(OC)cc3)CC2C)cc1 (stereo not drawn)
Outgoing: 0.0179

Incoming: Provide only the value of recorded fraction unbound at 5 h for CC(C)Oc1cc(Nc2nc(N[C@@H](C)c3ncc(F)cn3)ncc2Cl)n[nH]1
Outgoing: 0.0736

Incoming: Provide only the value of recorded fraction unbound at 5 h for CC(C)NC[C@@H](O)COc1cccc2ccccc12
Outgoing: 0.179

Incoming: Provide only the value of recorded fraction unbound at 5 h for CC(C)C[C@H](CO)Nc1nc(S[C@@H](C)c2ccccc2)nc2[nH]c(=O)sc12
Outgoing: 0.0009

Incoming: Provide only the value of recorded fraction unbound at 5 h for N#Cc1ccc2ccc(=O)n(CCN3CC[C@@H](NCc4ccc5c(n4)NC(=O)CO5)[C@@H](F)C3)c2c1
Outgoing: 0.465

Incoming: Provide only the value of recorded fraction unbound at 5 h for Fc1ccc(-c2cc(C3CCN(Cc4ccn(-c5ccc(C(F)(F)F)cc5)c4)CC3)no2)cc1
Outgoing: 0.0005

Incoming: Provide only the value of recorded fraction unbound at 5 h for CN(C)CCC1CCN(c2cc(C(=O)NC[C@H]3CC[C@H](CNC(=O)OCC(C)(C)C)CC3)c3ccccc3n2)CC1
Outgoing: 0.0039

----------
assay: in vitro; details: human, plasma, PPB
# binarize fraction unbound at 5 h: threshold 0.07 inclusive, high side 1.0, low side 0.0

Incoming: Quick check: does O=C(CCCN1CC[Si](O)(c2ccc(Cl)cc2)CC1)c1ccc(F)cc1 have fraction unbound at 5 h greater than or equal to 0.07?
Outgoing: 0.0

Incoming: Quick check: does c1ccc2c(c1)CC(N1CCN(c3cccc4c3OCCO4)CC1)C2 have fraction unbound at 5 h greater than or equal to 0.07?
Outgoing: 0.0

Incoming: Quick check: does c1ccc([C@@H]([C@H](c2ccccc2)N2CCCCC2)N2CCCCC2)cc1 have fraction unbound at 5 h greater than or equal to 0.07?
Outgoing: 1.0

Incoming: Quick check: does CC(=O)Nc1cccc(Nc2nc(NC3CC3)n3ncc(C#N)c3n2)c1 have fraction unbound at 5 h greater than or equal to 0.07?
Outgoing: 1.0

Incoming: Quick check: does Cc1ccc(S(=O)(=O)Nc2c(C(=O)N[C@@H](C)C(C)(C)C)c(C)nn2C2CCOC2)cc1 (stereo not given in full) have fraction unbound at 5 h greater than or equal to 0.07?
Outgoing: 1.0

Incoming: Quick check: does CC(CCc1ccccc1)NCC(O)c1ccc(O)c(C(N)=O)c1 (stereo not given) have fraction unbound at 5 h greater than or equal to 0.07?
Outgoing: 1.0

Incoming: Quick check: does O=C(CSc1ccccc1)N1CCN(C(=O)c2ccco2)CC1 have fraction unbound at 5 h greater than or equal to 0.07?
Outgoing: 1.0

Incoming: Quick check: does Nc1ncnc2c1ncn2[C@@H]1O[C@H](CSCCCNC(=O)NCc2ccccc2)[C@@H](O)[C@H]1O have fraction unbound at 5 h greater than or equal to 0.07?
Outgoing: 1.0

Incoming: Quick check: does CC(C)Cn1c(=O)n(C)c(=O)c2c(C(=O)N3CC[C@@H](O)C3)c(Cc3c[nH]c4ccccc34)sc21 have fraction unbound at 5 h greater than or equal to 0.07?
Outgoing: 1.0

Incoming: Quick check: does O=C1COc2nccc(-c3ccccc3F)c2CN1Cc1cc(C(F)(F)F)cc(C(F)(F)F)c1 have fraction unbound at 5 h greater than or equal to 0.07?
Outgoing: 0.0

Incoming: Quick check: does O=C(O)Cc1ccc(N2CCC(CN3CCC(Oc4ccc(Cl)c(Cl)c4)CC3)CC2)cc1 have fraction unbound at 5 h greater than or equal to 0.07?
Outgoing: 0.0

Incoming: Quick check: does Cc1c(N)cccc1Cn1ccc(OCCc2cccs2)cc1=O have fraction unbound at 5 h greater than or equal to 0.07?
Outgoing: 0.0

Incoming: Quick check: does COc1ccc(-c2nc(N3CCOCC3)nc(O)c2C#N)cc1 have fraction unbound at 5 h greater than or equal to 0.07?
Outgoing: 0.0

Incoming: Quick check: does C[C@H](CO)Nc1nc(SCc2ccccc2)nc2nc(N)sc12 have fraction unbound at 5 h greater than or equal to 0.07?
Outgoing: 0.0

Incoming: Quick check: does Cc1nn(C2CCOCC2)c(NS(=O)(=O)c2ccc(C3CC3)cc2)c1C(=O)N[C@@H](C)C(C)(C)C have fraction unbound at 5 h greater than or equal to 0.07?
Outgoing: 1.0

Incoming: Quick check: does CCc1ccc(OCC(=O)O)c(-c2ccc(S(C)(=O)=O)cc2)c1 have fraction unbound at 5 h greater than or equal to 0.07?
Outgoing: 0.0

Incoming: Quick check: does C[C@H](Nc1ncc(F)c(Nc2cc(N(C)C)[nH]n2)n1)c1ncc(F)cn1 have fraction unbound at 5 h greater than or equal to 0.07?
Outgoing: 1.0

Incoming: Quick check: does COc1cc(Nc2ncc(C)s2)nc(N[C@@H](C)c2ncc(F)cn2)n1 have fraction unbound at 5 h greater than or equal to 0.07?
Outgoing: 1.0

Incoming: Quick check: does COCC1=C(C(=O)O)N2C(=O)[C@@H](NC(=O)/C(=N\OC)c3csc(N)n3)[C@H]2SC1 have fraction unbound at 5 h greater than or equal to 0.07?
Outgoing: 1.0

Incoming: Quick check: does Cc1cc(C)c(S(=O)(=O)NCc2ccncc2)c(C)c1 have fraction unbound at 5 h greater than or equal to 0.07?
Outgoing: 1.0

----------
I'd appreciate it if you could supply hepatocyte CLint values for the items below.
assay: in vitro; conditions: hepatocytes
Give the quantity in µL/min/1e6 cells, number only.

Incoming: Provide only the value of recorded hepatocyte CLint for COc1ccc([C@]2(C#N)CC[C@@H](C(=O)O)CC2)cc1OC1CCCC1 [CILOMILAST]
Outgoing: 28

Incoming: Provide only the value of recorded hepatocyte CLint for Nc1ccc2c(-c3ccncc3)c(-c3ccc(F)cc3)[nH]c2n1
Outgoing: 117

Incoming: Provide only the value of recorded hepatocyte CLint for C[C@]12Cc3cnn(-c4ccc(F)cc4)c3C=C1CC[C@@]2(O)CCc1ccc(F)cc1C(N)=O
Outgoing: 52.5

Incoming: Provide only the value of recorded hepatocyte CLint for COc1cc(-n2cnc3cc(-c4ccc(Cl)cc4)sc3c2=O)ccc1OC[C@H](O)C1CC1
Outgoing: 9.77

Incoming: Provide only the value of recorded hepatocyte CLint for Cc1ccc(NC(=O)c2cccc(N(C)S(C)(=O)=O)c2)cc1NC(=O)c1ccc2ncccc2c1
Outgoing: 72.4

Incoming: Provide only the value of recorded hepatocyte CLint for Cc1nc2ccc(-c3ccc(Cl)cc3)cc2c(=O)n1C[C@H]1CCCN(C(C)C)C1
Outgoing: 3.8

Incoming: Provide only the value of recorded hepatocyte CLint for COc1ccc2ncc(F)c(CCN3CCC(NCc4cc5c(cn4)OCCO5)CC3)c2n1
Outgoing: 138

Incoming: Provide only the value of recorded hepatocyte CLint for CC(CO)(CO)Nc1nc(SCc2cccc(F)c2F)nc2nc(N)sc12
Outgoing: 7

Incoming: Provide only the value of recorded hepatocyte CLint for O=S1(=O)CC(O)C(N2CCC(c3ccccc3)CC2)C1 (stereo not given)
Outgoing: 75.9

Incoming: Provide only the value of recorded hepatocyte CLint for Cc1ccc(S(=O)(=O)Nc2c(C(=O)N[C@@H](C)C(C)(C)C)c(C)nn2CC(F)(F)F)cc1
Outgoing: 18

Incoming: Provide only the value of recorded hepatocyte CLint for O=C(Nc1cccc(-c2nnn[nH]2)c1)c1cc(F)cc2nc[nH]c12
Outgoing: 67.6

Incoming: Provide only the value of recorded hepatocyte CLint for CN1CCN(CC(=O)N2c3ccccc3C(=O)Nc3cccnc32)CC1 [PIRENZEPINE]
Outgoing: 6.76

Incoming: Provide only the value of recorded hepatocyte CLint for CC(C)=CCC[N+]12CCC(CC1)[C@@H](OC(=O)[C@](C)(c1ccccc1)N1CCCCC1)C2
Outgoing: 101

Incoming: Provide only the value of recorded hepatocyte CLint for CCOc1cc2ncc(C(N)=O)c(Nc3ccc(C)cc3F)c2cc1N1CCN(C)CC1
Outgoing: 12
